# experimental.system: UniProt P12931
# Sequence (P12931 2-536 limits assumed): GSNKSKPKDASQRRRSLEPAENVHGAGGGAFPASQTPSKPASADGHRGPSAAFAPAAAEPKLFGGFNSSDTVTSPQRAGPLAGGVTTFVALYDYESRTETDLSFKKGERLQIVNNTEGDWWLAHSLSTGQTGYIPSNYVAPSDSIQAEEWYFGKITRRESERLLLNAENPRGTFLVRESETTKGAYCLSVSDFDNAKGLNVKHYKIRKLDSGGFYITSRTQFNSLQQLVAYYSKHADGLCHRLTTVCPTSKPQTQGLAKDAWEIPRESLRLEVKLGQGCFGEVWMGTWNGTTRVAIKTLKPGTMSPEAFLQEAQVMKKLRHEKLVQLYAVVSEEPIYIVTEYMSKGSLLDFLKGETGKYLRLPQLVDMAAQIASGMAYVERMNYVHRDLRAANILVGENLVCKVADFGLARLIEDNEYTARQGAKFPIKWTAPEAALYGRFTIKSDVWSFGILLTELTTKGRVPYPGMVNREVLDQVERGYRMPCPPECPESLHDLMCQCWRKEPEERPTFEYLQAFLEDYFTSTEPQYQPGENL
pIC50: −log10 of the molar value.
property.measured: pIC50

Given the entry `CCOc1ccc2cc(-c3nn(C(C)(C)CCO)c(N)c3C(N)=O)cnc2c1` , what pIC50 was observed with UniProt P12931?
5.60

Observed pIC50 on UniProt P12931 for `CCOc1ccc2cc(-c3nn(C(C)(C)CCO)c(N)c3C(N)=O)ccc2c1` , please.
< 5.00

Record CCOc1ccc2cc(-c3nn(C(C)CCO)c(N)c3C(N)=O)cnc2c1 (configuration not stated) : what is its pIC50 with UniProt P12931?
5.46

Query for UniProt P12931: what pIC50 does the record show for `CC(C)(CCO)n1nc(-c2ccc3nc(OC4CC4)ccc3c2)c(C(N)=O)c1N` ?
< 5.00

# value lookup — system UniProt P12931, readout pIC50, item `CC(C)(CO)Cn1nc(-c2cnc3cc(OC4CC4)ccc3c2)c(C(N)=O)c1N`
< 5.00

Give the reported pIC50 for `CC(C)(CO)n1nc(-c2cnc3cc(OC4CC4)ccc3c2)c(C(N)=O)c1N` (system: UniProt P12931).
< 5.00

Lab note: need pIC50 with UniProt P12931 for entry `CCOc1ccc2cc(-c3nn(C(C)(C)CO)c(N)c3C(N)=O)cnc2c1` , please look it up.
5.33

Please tell me: pIC50 of `CC(C)(CCO)n1nc(-c2ccc3cc(OC4CC4)ccc3c2)c(C(N)=O)c1N` , system UniProt P12931?
< 5.00

For UniProt P12931, provide pIC50 of `CC(C)(CO)n1nc(-c2ccc3cc(OC4CC4)ccc3c2)c(C(N)=O)c1N` please.
< 5.00

GET /values?readout=pIC50&system=UniProt P12931&item= `CCOc1ccc2cc(-c3nn(C(C)(C)CO)c(N)c3C(N)=O)ccc2n1`
< 5.00

Query pIC50 on UniProt P12931 for CCOc1ccc2cc(-c3nn(C(C)CCO)c(N)c3C(N)=O)ccc2c1 (configuration not stated)
5.00

Which pIC50 is reported with UniProt P12931 for this entry: CC(CCO)n1nc(-c2ccc3cc(OC4CC4)ccc3c2)c(C(N)=O)c1N (configuration not stated) ?
< 5.00

Notebook: pull reported pIC50 for UniProt P12931, entry `CCOc1ccc2cc(-c3nn(CC(C)(C)CO)c(N)c3C(N)=O)ccc2c1`
5.20

API: value(readout=pIC50, system=UniProt P12931) for record `CC(C)(CCO)n1nc(-c2cnc3cc(OC4CC4)ccc3c2)c(C(N)=O)c1N`
< 5.00

Form field - read-out: pIC50; system: UniProt P12931; submitted item: `CC(C)(C)n1nc(-c2ccc3cc(OC4CC4)ccc3c2)c(C(N)=O)c1N`
< 5.00

Look up pIC50 with UniProt P12931 for this molecule: `CCOc1ccc2cc(-c3nn(C(C)(C)CO)c(N)c3C(N)=O)ccc2c1`
< 5.00

Give UniProt P12931 pIC50 for `CCOc1ccc2cc(-c3nn(CC4CC4)c(N)c3C(N)=O)ccc2c1`
5.00

====

# measurement.protocol: Plasma concentration in mouse at 250 mg/kg, po QD for 2 days measured after 2 hrs by LC-MS/MS analysis
property.measured: concentration at 48 h (µM)
Write the number in µM without appending the unit.

Could you share which concentration at 48 h value was measured for `CC(C)(C)n1nc(-c2ccc3cc(OC4CC4)ccc3c2)c(C(N)=O)c1N` ?
40.1

====

# measurement.protocol: Solubility in pH 2.0 solution
# particulars: buffer
Field: solubility. Provide a value for each of the molecules that follow.
Value expressed in µM; do not type the unit.

I have this molecule here, `CC(C)(CCO)n1nc(-c2cnc3cc(OC4CC4)ccc3c2)c(C(N)=O)c1N` , and I need its recorded solubility.
88.8

# query: solubility of entry `CC(C)(CO)n1nc(-c2cnc3cc(OC4CC4)ccc3c2)c(C(N)=O)c1N`
89

====

# measurement.protocol: Plasma concentration in mouse at 100 mg/kg, po QD for 7 days measured after 48 hrs by LC-MS/MS analysis
# Format: ADME, organism-based
# particulars: time 7 day
property.measured: concentration at 168 h (µM)
Give the value, in units of µM, as a plain number.

Tell me the measured concentration at 168 h of `CC(C)(C)n1nc(-c2ccc3cc(OC4CC4)ccc3c2)c(C(N)=O)c1N` , please.
4.8

====

# particulars: mouse, in vivo, po, 30 mg/kg, 96 h
property.measured: Cmax (µM)
Number in µM, nothing else.

Fill in: Cmax of `CC(C)(C)n1nc(-c2ccc3cc(OC4CC4)ccc3c2)c(C(N)=O)c1N` is ___
28.8

====

# measurement.protocol: AUC in mouse at 25 mg/kg, po
# Assay type: ADME, organism-based
# Set-up: dose 25 mg/kg
# particulars: in vivo
property.measured: AUC (µmol·min/L)
Response body: numeric value in µmol·min/L, unit text excluded.

Recorded AUC for `CC(C)(CO)n1nc(-c2ccc3cc(OC4CC4)ccc3c2)c(C(N)=O)c1N` , please?
41782

Consider the compound shown here: CC(CCO)n1nc(-c2ccc3nc(OC4CC4)ccc3c2)c(C(N)=O)c1N (stereo not drawn) What is its recorded AUC?
1154.1

Return reported AUC; argument: `CCOc1ccc2cc(-c3nn(CC4CC4)c(N)c3C(N)=O)ccc2c1`
2800.8

====

# measurement.protocol: AUC in mouse at 25 mg/kg, po
# Type: ADME, organism-based
# Set-up: dose 25 mg/kg
# particulars: in vivo
With a cut-off of 600 µmol·min/L, any AUC strictly below it is called True; any AUC meeting it or above is called False.

Does the reported AUC of the following molecule sit strictly below 600 µmol·min/L? `CCOc1ccc2cc(-c3nn(CC(C)(C)CO)c(N)c3C(N)=O)ccc2c1`
False

API: query returns whether the molecule falls strictly under 600 µmol·min/L in AUC. Query: `CCOc1ccc2cc(-c3nn(C(C)(C)CO)c(N)c3C(N)=O)ccc2n1`
False

# TODO verify AUC < 600 µmol·min/L strictly for this molecule: CC(CCO)n1nc(-c2cnc3cc(OC4CC4)ccc3c2)c(C(N)=O)c1N (stereo not given)
False

Report whether reported AUC is lower than 600 µmol·min/L (strictly) for CCOc1ccc2cc(-c3nn(C(C)CCO)c(N)c3C(N)=O)ccc2c1 (stereo not given)
False

Check if AUC falls below 600 µmol·min/L for `CC(C)(CCO)n1nc(-c2ccc3cc(OC4CC4)ccc3c2)c(C(N)=O)c1N` .
True

====

# measurement.protocol: Plasma concentration in mouse at 100 mg/kg, po QD for 7 days measured after 72 hrs by LC-MS/MS analysis
# Assay type: ADME, organism-based
# particulars: time 7 day
property.measured: concentration at 168 h
# do not omit the unit; it follows the number

Consider the compound `CC(C)(C)n1nc(-c2ccc3cc(OC4CC4)ccc3c2)c(C(N)=O)c1N` and give its measured concentration at 168 h.
300 nM

====

Can you tell me pEC50 for the items I'm about to list?
# Test system: Cryptosporidium parvum
# measurement.protocol: Antimicrobial activity against nano-luciferase-expressing Cryptosporidium parvum infected in human HCT8 cells incubated for 72 hrs by luciferase reporter gene assay
# Type: functional, organism-based
# particulars: HCT-8, 72 h
Field pEC50 (float): negative decimal logarithm of the concentration in molar.

Which pEC50 value is on record for CC(CCO)n1nc(-c2ccc3nc(OC4CC4)ccc3c2)c(C(N)=O)c1N (configuration not stated) ?
6.22

Return reported pEC50; argument: CC(CCO)n1nc(-c2cnc3cc(OC4CC4)ccc3c2)c(C(N)=O)c1N (configuration not stated)
6.37

====

# measurement.protocol: Plasma concentration in mouse at 100 mg/kg, po QD for 3 days measured on pre dose by LC-MS/MS analysis
property.measured: concentration at 72 h (µM)
Give just the number in µM; leave the unit off.

Could you tell me which concentration at 72 h is on file for `CC(C)(C)n1nc(-c2ccc3cc(OC4CC4)ccc3c2)c(C(N)=O)c1N` ?
19.9

====

# measurement.protocol: Protein binding in human plasma by dialysis method
property.measured: fraction unbound

So what does the record say about fraction unbound for CC(CCO)n1nc(-c2cnc3cc(OC4CC4)ccc3c2)c(C(N)=O)c1N (stereo unspecified) ?
0.49

====

# measurement.protocol: Drug level in mouse fecus at 25 mg/kg, po
# particulars: read-out: Drug uptake, in vivo
property.measured: log10 concentration (log10 of the value in µM)
Values are log10 of concentration in µM.

Could you tell me which log10 concentration is on file for `CCOc1ccc2cc(-c3nn(C(C)(C)CO)c(N)c3C(N)=O)cnc2c1` ?
0.46

Any idea what its log10 concentration is? The compound is CC(CCO)n1nc(-c2ccc3cc(OC4CC4)ccc3c2)c(C(N)=O)c1N (stereo not given)
1.01

For `CC(C)(C)n1nc(-c2ccc3cc(OC4CC4)ccc3c2)c(C(N)=O)c1N` , what is its reported log10 concentration?
-0.38

Please report the recorded log10 concentration for `CCOc1ccc2cc(-c3nn(C(C)(C)CO)c(N)c3C(N)=O)ccc2n1` .
-0.39

Field request: log10 concentration | item: CC(CCO)n1nc(-c2cnc3cc(OC4CC4)ccc3c2)c(C(N)=O)c1N (stereo not given)
0.65

Please look up its log10 concentration: `CC(C)(CO)n1nc(-c2ccc3cc(OC4CC4)ccc3c2)c(C(N)=O)c1N`
0.54

Can you share its log10 concentration? I mean this compound: `CCOc1ccc2cc(-c3nn(CC(C)(C)CO)c(N)c3C(N)=O)ccc2c1`
0.88

Could you tell me which log10 concentration is on file for `CCOc1ccc2cc(-c3nn(C(C)(C)CO)c(N)c3C(N)=O)ccc2c1` ?
0.85

# get_value(readout='log10 concentration', item= `CCOc1ccc2cc(-c3nn(CC4CC4)c(N)c3C(N)=O)ccc2c1` )
1.73

What does the data say about its log10 concentration? Entry: CCOc1ccc2cc(-c3nn(C(C)CCO)c(N)c3C(N)=O)cnc2c1 (stereo not given)
0.04
